- Assay system: recombinant human FAP (Homo sapiens, UniProt Q12884)
- Sequence (Q12884 whole entry): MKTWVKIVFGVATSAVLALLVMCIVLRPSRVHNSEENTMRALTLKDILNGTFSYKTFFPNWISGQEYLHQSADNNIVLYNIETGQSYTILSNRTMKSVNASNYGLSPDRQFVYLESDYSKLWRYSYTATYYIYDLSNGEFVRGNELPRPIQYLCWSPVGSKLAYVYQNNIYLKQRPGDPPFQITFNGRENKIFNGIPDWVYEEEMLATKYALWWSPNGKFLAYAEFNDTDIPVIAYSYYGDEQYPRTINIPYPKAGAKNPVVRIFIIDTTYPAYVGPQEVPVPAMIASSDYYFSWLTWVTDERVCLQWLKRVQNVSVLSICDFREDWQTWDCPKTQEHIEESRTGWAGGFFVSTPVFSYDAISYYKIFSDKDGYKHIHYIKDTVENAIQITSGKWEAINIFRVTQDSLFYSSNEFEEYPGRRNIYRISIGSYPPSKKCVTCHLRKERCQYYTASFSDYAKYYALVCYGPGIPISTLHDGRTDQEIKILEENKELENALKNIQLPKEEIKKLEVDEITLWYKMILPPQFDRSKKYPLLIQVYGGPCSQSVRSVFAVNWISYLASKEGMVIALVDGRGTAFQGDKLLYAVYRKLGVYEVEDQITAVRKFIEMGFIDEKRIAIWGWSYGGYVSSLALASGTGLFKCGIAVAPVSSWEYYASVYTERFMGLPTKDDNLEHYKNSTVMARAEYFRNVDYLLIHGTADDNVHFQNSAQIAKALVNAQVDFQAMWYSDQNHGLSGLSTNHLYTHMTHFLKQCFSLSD
- Test summary: In vitro FAP fluorescence enzyme inhibition assay (Suc-Gly-Pro-AMC substrate)
- Test settings: nonradioactive Ga-complexed standards
Consider the following molecules and their measured IC50 readings.
Quick note: unit goes after the number.

Molecule: CN(CCN(C)c1cc(C(=O)NCC(=O)N2CC(F)(F)C[C@H]2C#N)ccn1)C(=O)CN1CCN(CC(=O)[O-])CCN(CC(=O)[O-])CCN(CC(=O)[O-])CC1.[Ga+3] [Ga-AV02070]
IC50: 17.1 nM

(Q) Value lookup for IC50; key = CN(CCN(C)c1ccc(C(=O)NCC(=O)N2CC(F)(F)C[C@H]2C#N)cn1)C(=O)CN1CCN(CC(=O)[O-])CCN(CC(=O)[O-])CCN(CC(=O)[O-])CC1.[Ga+3] [Ga-AV02053]
(A) 187 nM

Entry source: paper PMC10057391
